Values compiled from paper PMC8434401.

targetOrSystem: Aspergillus oryzae α-amylase (Aspergillus oryzae)
measurementDescription: biochemical
conditionSummary: read-out: α-Amylase Inhibition PI ± SEM% (percentage inhibition)
measurementType: inhibition at 50 µM (%)
Express your answer in %, writing the number without its unit.

See these solved cases before continuing.
>>> assayresult("O=c1c(OCc2cc(-c3ccc(Cl)cc3)no2)c(-c2ccc(C(F)(F)F)cc2)oc2ccc(Cl)cc12")
87.1
>>> assayresult("COc1ccc(-c2cc(COc3c(-c4ccc(C(F)(F)F)cc4)oc4ccc(Cl)cc4c3=O)on2)cc1Cl")
72.5
>>> assayresult("O=c1c(OCc2cc(-c3ccc([N+](=O)[O-])cc3)no2)c(-c2ccc(C(F)(F)F)cc2)oc2ccc(Cl)cc12")
74.7

As a next step, examine the compound that follows.
Problem: # return recorded inhibition at 50 µM for input COc1ccc(-c2cc(COc3c(-c4ccc(C(F)(F)F)cc4)oc4ccc(Cl)cc4c3=O)on2)cc1OC
Solution: 93.3
